Measured kon values are reported for all entries that follow.
- experimental.target: T1, human IL-6 (Interleukin-6) (human, UniProt P05231 30-212)
- T1 construct: also called 001 IL-6 antigen
- protocol: Biacore (SPR), antibody captured on anti-human Fc, IL-6 as analyte
Numeric only. Scale: M⁻¹ s⁻¹

| binder | quantity.unit | kon |
| --- | --- | --- |
| Anti-IL-6 Ab BA890 (antibody, V domains shown, Humanized monoclonal antibody) VH: QVQLVQSGAEVKKPGASVKVSCKASGFTFSSFAMSWIRQPPGKGLEWIGEISSGGSYTYYPDTVTGRFTISRDNAKNSLYLQMNSLRAEDTAVYYCARGLWGYYALDYWGQG VL: AIQLTQSPSSLSASVGDRVTITCSASSSVSYMYWYQQKPGQAPRLLIYDTSNLASGIPPRFSGSGYGTDFTLTINNIESEDAAYYFCQQWSGYPYTFGQG | M⁻¹ s⁻¹ | 745000 |

Sample Anti-IL-6 Ab BA808 (antibody, V domains shown, Humanized monoclonal antibody) VH: QVQLVQSGAEVKKPGASVKVSCKASGFTFSSFAMSWIRQSPSRGLEWLGEISSGGSYTYYPDTVTGRFTISRDNAKNSLYLQMNSLRAEDTAVYYCARGLWGYYALDYWGQG VL: EIVLTQSPATLSVSPGERATLSCSASSSVSYMYWYLQKPGQSPQLLIYDTSNLASGIPPRFSGSGYGTDFTLTINNIESEDAAYYFCQQWSGYPYTFGQG — what was its kon?
1.31e+06
